test system: Jurkat cells; assay: IL-2 secretion assay in CD3/CD28-activated Jurkat cells (AlphaLISA); assay type: cell-based; settings: Homo sapiens, CD3/CD28 T Cell Activator, 24 h, IL-2 AlphaLISA
pEC50: −log10 of the molar value.
In this section we review reported pEC50 values for a set of compounds.
propertyName: pEC50

• Cn1cnnc1C1(c2cccc(-n3cc(C4CC4)c4cc(CN[C@@H]5CCCS(=O)(=O)C5)[nH]c4c3=O)c2)CC(F)(F)C1 = < 5.30
• Cn1cnnc1C1(c2cccc(-n3cc(C4CC4)c4cc(CNc5ccc(Cl)cc5F)[nH]c4c3=O)c2)CC(F)(F)C1 = < 5.30
• CC1CC(c2cccc(-n3cc(C4CC4)c4cc(CN5C[C@@H]6C[C@H]5CN6C)[nH]c4c3=O)c2)(c2nncn2C)C1 (stereo partly shown) = < 5.30
• C[C@H]1CCCN(Cc2cc3c(C4CC4)cn(-c4cccc(C(C)(F)c5nccn5C)c4)c(=O)c3[nH]2)C1 (stereo partly shown) = 5.30 to 6.00

* * *

tested on: Jurkat cells; assay: IL-2 secretion assay in CD3/CD28-activated Jurkat cells (AlphaLISA); type: cell-based; details: Homo sapiens, CD3/CD28 T Cell Activator, 24 h, IL-2 AlphaLISA
propertyName: EC50

• C[C@H]1CCCN(Cc2cc3c(C4CC4)cn(-c4cccc(C5(c6nccn6C)CC(F)(F)C5)c4)c(=O)c3[nH]2)C1 = 100 to 1000 nM
• CC1CC(c2cccc(-n3cc(C4CC4)c4cc(CO)[nH]c4c3=O)c2)(c2nncn2C)C1 (stereo not shown) = 1000 to 5000 nM
• C[C@@H]1CN(Cc2nc3c(C4CC4)cn(-c4cccc([C@]5(c6nncn6C)C[C@H](C)C5)c4)c(=O)c3[nH]2)CCO1 = 100 to 1000 nM
• CC1CC(c2cccc(-n3cc(C4CC4)c4cc(CN(C)C)[nH]c4c3=O)c2)(c2nncn2C)C1 (stereo not shown) = < 100 nM
• CC1CC(c2cccc(-n3cnc4cc(CN5CCC[C@H](C)C5)[nH]c4c3=O)c2)(c2nncn2C)C1 (mixture of isomers) = < 100 nM
• C[C@H]1CCCN(Cc2cc3c(C4CC4)cn(-c4cccc(C5(c6nncn6CC(F)(F)F)CC6(CC6)C5)c4)c(=O)c3[nH]2)C1 = 1000 to 5000 nM
• C[C@H]1CCCN(Cc2cc3c(C4CC4)cn(-c4cccc([C@]5(c6nncn6C(F)F)C[C@H](OC(F)F)C5)c4)c(=O)c3[nH]2)C1 = < 100 nM
• C[C@@H]1CN(Cc2cc3c(C4CC4)cn(-c4cccc(C5(c6nncn6C)CC(F)(F)C5)c4)c(=O)c3[nH]2)CCO1 = < 100 nM
• C[C@H]1CCCN(Cc2cc3c(S(C)(=O)=O)cn(-c4cccc([C@]5(c6nncn6C)C[C@@H](C)C5)c4)c(=O)c3[nH]2)C1 (single isomer, unassigned) = < 100 nM
• C[C@H]1CCCN(Cc2cc3c(C4CC4)cn(-c4cccc(C5(Cn6cccn6)CC(F)(F)C5)c4)c(=O)c3[nH]2)C1 = 100 to 1000 nM
• CC1CC(c2cccc(-n3cnc4c(C(F)(F)F)c(CN5CCC[C@H](C)C5)[nH]c4c3=O)c2)(c2nncn2C)C1 (mixture of isomers) = 100 to 1000 nM
• CC(O)C1(NCc2cc3c(C4CC4)cn(-c4cccc(C5(c6nncn6C)CC(F)(F)C5)c4)c(=O)c3[nH]2)CC1 (stereo not shown) = 1000 to 5000 nM
• CC1CC(c2cccc(-n3cc(C4CC4)c4cc(CN5CC6CCC5C6)[nH]c4c3=O)c2)(c2nncn2C)C1 (stereo not shown) = < 100 nM
